B1: glmS ribozyme (parent)
chain: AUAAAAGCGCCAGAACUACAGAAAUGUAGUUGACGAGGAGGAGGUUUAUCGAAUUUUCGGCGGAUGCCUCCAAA

# Variants of: B1
# METHOD_DESCRIPTION: self-cleavage kobs at 640 uM GlcN6P; higher = faster cleavage; RNA array
# MEASUREMENT_CONDITIONS: with glucosamine-6-phosphate
This sample holds only a part of the variants without activity.
Here the recorded self-cleavage kobs at 640 uM GlcN6P is given for each entry.
Entry rule: numbers only, all in s⁻¹.

Consider the following illustrative entries.
Noted for A14G C34U U54G C58G U69G : its self-cleavage kobs at 640 uM GlcN6P reads 0.000551

Just so you know, measured self-cleavage kobs at 640 uM GlcN6P for C16U C67U came out at 0.00186

Input A39C C67U . Output self-cleavage kobs at 640 uM GlcN6P: 0.000154

Form: variant = C58G C67G ; self-cleavage kobs at 640 uM GlcN6P = 0.000101

Further cases:
// recorded self-cleavage kobs at 640 uM GlcN6P for A12U U55A : 0.0231

The recorded self-cleavage kobs at 640 uM GlcN6P for entry U46A equals 0.000926

get_value(item= A14G G29U U47G C70G , readout=self-cleavage kobs at 640 uM GlcN6P) returns 0.000119
